experiment: Example 19 crossover pharmacokinetics of four oral tablet formulations in fasted dogs; format: in vivo, beagle dogs; settings: male, beagle, dog, plasma, po, 200 mg/tablet/dog, Example 19, fasted dogs, 200 mg tablet PO, individual subjects; LOQ 1.02 to 5.1 ng/mL; read-out: Plasma concentration of Compound I at 1 hour
Experimental endpoint: concentration at 1 h (ng/mL)
// return numeric value only (unit: ng/mL, not printed)

Req: Quick one: concentration at 1 h for Cc1ccc(S(=O)(=O)O)cc1.Cn1cc(-c2cn(-c3ccc(OC(F)(F)F)cc3)c(=O)c3ncn(C)c23)cn1 [mono-tosylate] ?
Resp: 9450

###

assay: Solubility in pure water at 25° C. with PXRD of solid residues; type: physicochemical; details: pure water, 25° C., one hour
I would appreciate it if you labelled entries Fulfilled when S 1 hr is 2 mg/mL or higher, otherwise Not fulfilled.

Req: Could you tell me if the measured S 1 hr of Br.Br.Cn1cc(-c2cn(-c3ccc(OC(F)(F)F)cc3)c(=O)c3ncn(C)c23)cn1 reaches 2 mg/mL or more?
Resp: Not fulfilled

Req: Record Cl.Cl.Cn1cc(-c2cn(-c3ccc(OC(F)(F)F)cc3)c(=O)c3ncn(C)c23)cn1 [di-HCl crystalline] ; criterion: S 1 hr no lower than 2 mg/mL. Met?
Resp: Not fulfilled

Req: Textbook exercise: given the entry Cn1cc(-c2cn(-c3ccc(OC(F)(F)F)cc3)c(=O)c3ncn(C)c23)cn1.Cn1cc(-c2cn(-c3ccc(OC(F)(F)F)cc3)c(=O)c3ncn(C)c23)cn1.O=S(=O)(O)CCS(=O)(=O)O [hemi-edisylate] , state whether its S 1 hr is greater than or equal to 2 mg/mL.
Resp: Not fulfilled

Req: Has Cn1cc(-c2cn(-c3ccc(OC(F)(F)F)cc3)c(=O)c3ncn(C)c23)cn1.Cn1cc(-c2cn(-c3ccc(OC(F)(F)F)cc3)c(=O)c3ncn(C)c23)cn1.O=S(=O)(O)c1cccc2c(S(=O)(=O)O)cccc12 [hemi-napadisylate] a recorded S 1 hr greater than or equal to 2 mg/mL?
Resp: Fulfilled

Req: State whether the measured S 1 hr reaches 2 mg/mL, counting equality as reaching it, for Cc1ccc(S(=O)(=O)O)cc1.Cn1cc(-c2cn(-c3ccc(OC(F)(F)F)cc3)c(=O)c3ncn(C)c23)cn1 [mono-tosylate]
Resp: Fulfilled

Req: Textbook exercise: given the entry Cn1cc(-c2cn(-c3ccc(OC(F)(F)F)cc3)c(=O)c3ncn(C)c23)cn1.O=S(=O)(O)O [mono-sulfate crystalline] , state whether its S 1 hr is greater than or equal to 2 mg/mL.
Resp: Not fulfilled

Req: Please indicate if the recorded S 1 hr for Cn1cc(-c2cn(-c3ccc(OC(F)(F)F)cc3)c(=O)c3ncn(C)c23)cn1.O=[N+]([O-])O [mono-nitrate crystalline] meets or exceeds 2 mg/mL.
Resp: Not fulfilled
